assay: viability loss in pontine glioma line – cell-based, SU-DIPG-XIII, MIPE5.0, CellTiter-Glo, qHTS, dose response (AID 1347064); settings: CellTiter-Glo ATP luminescence;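 on AC50: cells exposed to compound for 48 hours before the viability read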
Records with an inconclusive call do not appear. Activity calls are given as the source filed them. Cut-off not given; nearly all actives show AC50 up to about 23 µM.
Answer with one of the outcomes active, inactive

[in] Tell me the recorded outcome of this test for CNc1nc(Nc2ccc(C(=O)N3CCOCC3)cc2OC)ncc1Cl .
[out] inactive

[in] Per the records of this test, what outcome belongs to NC(=O)c1cccc(-c2cc(Nc3ccc(OC(F)(F)F)cc3)ncn2)c1 ?
[out] active

[in] What is the recorded call for this compound in the test? CNC(=O)c1c(F)cccc1Nc1nc(Nc2cc3c(cc2OC)CCN3C(=O)CN(C)C)nc2[nH]ccc12
[out] active

[in] Check the results log: what was the call for Cc1[nH]nc(C(F)(F)F)c1Cc1sc2c(c1C(=O)N1C[C@](C)(O)CO1)c(=O)n(C)c(=O)n2C(C)C ?
[out] inactive

[in] What did the test return for COc1cc(/C=C(\C#N)C(=O)Nc2nnc(C(F)(F)F)s2)ccc1OCc1ccc(C(F)(F)F)cc1C(F)(F)F ?
[out] active

[in] In this assay, the call recorded for CC1(C)CCC2(CC1)N[C@@H](C(=O)N[C@@H]1CC[C@@H](C(N)=O)OC1)[C@H](c1ccnc(Cl)c1F)[C@]21C(=O)Nc2cc(Cl)ccc21 was what?
[out] active

[in] What is the recorded call for this compound in the test? NS(=O)(=O)OC[C@@H]1C[C@@H](n2ccc3c(N[C@H]4CCc5ccccc54)ncnc32)C[C@@H]1O
[out] inactive

[in] I'd appreciate the recorded outcome for O=C(NCCCCN1CCOCC1)c1cc2ccccc2o1 from this test.
[out] inactive

[in] State the result this test recorded for Nc1n[n+]([O-])c2ccccc2[n+]1[O-] .
[out] inactive

[in] Check the results log: what was the call for COc1ccnc2[nH]cc(C(=O)C(=O)N3CCN(C(=O)c4ccccc4)C[C@H]3C)c12 ?
[out] inactive

[in] Name the outcome recorded for C=CC(=O)Nc1cc(Nc2nccc(-c3cn(C)c4ccccc34)n2)c(OC)cc1N(C)CCN(C)C in the assay.
[out] active

[in] Hi, sorry to bother you, what did the test record for OCCNC1CCCc2c1[nH]c1ccc(-c3ccccc3)cc21 (configuration not stated) ?
[out] active

[in] Per the records of this test, what outcome belongs to CC[C@]12C=CCN3CC[C@@]4(c5cc([C@@]6(C(=O)OC)C[C@H]7C[C@@H](C(C)(F)F)CN(Cc8c6[nH]c6ccccc86)C7)c(OC)cc5N(C)[C@H]4[C@@](O)(C(=O)OC)[C@@H]1OC(C)=O)[C@@H]32 ?
[out] active

[in] What was the test verdict on COCCn1c2c([n+](Cc3cnccn3)c1C)C(=O)c1ccccc1C2=O ?
[out] active

[in] Record lookup: outcome of this test for Fc1ccc(-c2csc3ncnc(NCc4ccc5c(c4)OCO5)c23)cc1 ?
[out] active

[in] Outcome? CN(C)c1cc(NC(=O)CNC(C)(C)C)c(O)c2c1C[C@H]1C[C@H]3[C@H](N(C)C)C(=O)C(C(N)=O)=C(O)[C@]3(O)C(=O)C1=C2O
[out] inactive

[in] Just curious, what result did CN(C)Cc1cccc(N=C(c2ccccc2)c2c(O)[nH]c3cc(C(=O)N(C)C)ccc23)c1 get here?
[out] inactive
